tested on: A498; test: NCI tumour cell line growth inhibition, 48 h
Calls of active or inactive are those of the source. Cut-off read from the data, not from the text of the source: active = GI50 up to about 1.1 µM and inactive = higher.
Experimental readout: GI50

// below: answered compounds
| Compound | GI50 |
| --- | --- |
| CC1(C)C(=O)CCC(=O)C(C)(C)C2=CC=C(O2)C(C)(C)C(=O)CCC(=O)C(C)(C)C2=CC=C1O2 | > 100 µM (inactive) |
| COC(=O)NN1C(=O)C(=P(c2ccccc2)(c2ccccc2)c2ccccc2)C(C(=O)OC)=C1C | > 100 µM (inactive) |

[Q] For the compound COc1ccccc1NC(=O)C(=O)C(C#N)CC(C)(C)C=O (stereo not drawn) , what GI50 is on record?
[A] > 100 µM (inactive)
